This listing pairs substances with measured sw(20,w).
# Test system: STIL CCD peptide
# testDescription: AUC sedimentation velocity (SV), oligomeric state
# Assay type: physicochemical
# experimentalParameters: 10 µM; AUC-SV, 60 krpm, pH 6.8
Quick note: give the figure in S, leave out the unit.

# substance, sw(20,w), S
measured = [
    ("L SPDLYRF LTEQDRQ LRLLQAQ IQRLLEA QSL-NH2 [STIL CCD718–749 A722L, STIL CCD peptide with A722L mutation]", 1.428),
    ("L SPDAYRF LTEQDRQ LRLEQAQ IQRLLEA QSL-NH2 [STIL CCD718–749 L736E, STIL CCD peptide with destabilising L736E mutation; PDB 8oyk]", 0.608),
    ("L SPDLYRF LTELDRQ LRLLQAQ IQRLLEA QSL-NH2 [STIL CCD718–749 A722L Q729L, STIL CCD peptide, double mutant of A722L and Q729L]", 1.499),
]

Could you now consider this next substance?
Please fill in: sw(20,w) reported for L SPDAYRF LTELDRQ LRLLQAQ IQRLLEA QSL-NH2 [STIL CCD718–749 Q729L, STIL CCD peptide with stabilising Q729L mutation; PDB 8oyl] = 1.531

###

# Tested on: STIL CCD peptide
# testDescription: AUC sedimentation velocity (SV), oligomeric state
# Type: physicochemical
# experimentalParameters: 10 µM; AUC-SV, 60 krpm, 20 °C, pH 6.8
measurementKind: sw (S)
Quick note: give the figure in S, leave out the unit.

# substance, val
data = [
    ("L SPDLYRF LTELDRQ LRLLQAQ IQRLLEA QSL-NH2 [STIL CCD718–749 A722L Q729L, STIL CCD peptide, double mutant of A722L and Q729L]", 1.452),
    ("L SPDLYRF LTEQDRQ LRLLQAQ IQRLLEA QSL-NH2 [STIL CCD718–749 A722L, STIL CCD peptide with A722L mutation]", 1.384),
    ("L SPDAYRF LTEQDRQ LRLEQAQ IQRLLEA QSL-NH2 [STIL CCD718–749 L736E, STIL CCD peptide with destabilising L736E mutation; PDB 8oyk]", 0.590),
]

GET /values?item= L SPDAYRF LTELDRQ LRLLQAQ IQRLLEA QSL-NH2 [STIL CCD718–749 Q729L, STIL CCD peptide with stabilising Q729L mutation; PDB 8oyl] &system= STIL CCD peptide returns sw: 1.484

Where do these numbers come from? They come from paper PMC10572602.
